Value source: patent US20240034772A1

EC50 values, listed per item
target: MPV pre-fusion F protein (conformationally stabilized, CAN97-83 MPV strain) (human metapneumovirus (hMPV), strain …, UniProt Q6WB98 19-489); test: ELISA
Sequence (Q6WB98 19-489): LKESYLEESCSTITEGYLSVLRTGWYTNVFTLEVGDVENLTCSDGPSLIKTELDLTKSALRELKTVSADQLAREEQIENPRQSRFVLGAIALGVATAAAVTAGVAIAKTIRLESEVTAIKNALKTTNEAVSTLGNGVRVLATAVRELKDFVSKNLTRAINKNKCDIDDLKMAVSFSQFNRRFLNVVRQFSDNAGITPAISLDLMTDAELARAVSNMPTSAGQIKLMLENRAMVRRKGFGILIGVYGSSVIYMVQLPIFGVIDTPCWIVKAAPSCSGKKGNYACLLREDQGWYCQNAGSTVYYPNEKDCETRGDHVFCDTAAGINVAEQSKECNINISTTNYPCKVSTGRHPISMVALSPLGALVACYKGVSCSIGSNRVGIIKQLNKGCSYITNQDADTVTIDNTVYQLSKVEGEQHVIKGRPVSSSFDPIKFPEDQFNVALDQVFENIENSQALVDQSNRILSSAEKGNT

[
  {
    "Binder": "MPE33_C38A (antibody, V domains shown) VH: QVQLQESGPGLVKPSQTLSLTCTVSGDSISNGSYAWNWVRQPAGKGLEWIGRIYPIGNTNYNPSLKSRVTISLDTSKNQFSLKLASVTAADTAVYYCAREARIFEGYYYYYYGLDVWGQGTTVTVSS VL: EIVLTQSPATLSLSPGERATLSCRASQTISSYLAWYQQKPGQAPRLLISDVSKRATGIPARFSGSGSGTDFTLTISSLEPEDFAVYYCHQRSNWDTFGQGTKLEIK",
    "EC50 [ng/mL]": 1.51
  },
  {
    "Binder": "MPE33_C38Y (antibody, V domains shown) VH: QVQLQESGPGLVKPSQTLSLTCTVSGDSISNGSYYWNWVRQPAGKGLEWIGRIYPIGNTNYNPSLKSRVTISLDTSKNQFSLKLASVTAADTAVYYCAREARIFEGYYYYYYGLDVWGQGTTVTVSS VL: EIVLTQSPATLSLSPGERATLSCRASQTISSYLAWYQQKPGQAPRLLISDVSKRATGIPARFSGSGSGTDFTLTISSLEPEDFAVYYCHQRSNWDTFGQGTKLEIK",
    "EC50 [ng/mL]": 2.5
  },
  {
    "Binder": "MPE33_C38S (antibody, V domains shown) VH: QVQLQESGPGLVKPSQTLSLTCTVSGDSISNGSYSWNWVRQPAGKGLEWIGRIYPIGNTNYNPSLKSRVTISLDTSKNQFSLKLASVTAADTAVYYCAREARIFEGYYYYYYGLDVWGQGTTVTVSS VL: EIVLTQSPATLSLSPGERATLSCRASQTISSYLAWYQQKPGQAPRLLISDVSKRATGIPARFSGSGSGTDFTLTISSLEPEDFAVYYCHQRSNWDTFGQGTKLEIK",
    "EC50 [ng/mL]": 2.39
  },
  {
    "Binder": "MPE33_N34S (antibody, V domains shown) VH: QVQLQESGPGLVKPSQTLSLTCTVSGDSISSGSYCWNWVRQPAGKGLEWIGRIYPIGNTNYNPSLKSRVTISLDTSKNQFSLKLASVTAADTAVYYCAREARIFEGYYYYYYGLDVWGQGTTVTVSS VL: EIVLTQSPATLSLSPGERATLSCRASQTISSYLAWYQQKPGQAPRLLISDVSKRATGIPARFSGSGSGTDFTLTISSLEPEDFAVYYCHQRSNWDTFGQGTKLEIK",
    "EC50 [ng/mL]": 1.56
  }
]
